Values compiled from ChEMBL document CHEMBL5291721.

Record type: AC50 measurement. Applies to: Vasopressin V2 receptor (Homo sapiens, UniProt P30518)

Item: COc1ccc2nc3cc(Cl)ccc3c(Nc3cc(CN4CCCC4)c(O)c(CN4CCCC4)c3)c2n1 [PYRONARIDINE] Test system: Vasopressin V2 receptor (Homo sapiens, UniProt P30518) Read-out: AC50 Value: ?; also: assay procedure not described here
Sequence (P30518 whole entry): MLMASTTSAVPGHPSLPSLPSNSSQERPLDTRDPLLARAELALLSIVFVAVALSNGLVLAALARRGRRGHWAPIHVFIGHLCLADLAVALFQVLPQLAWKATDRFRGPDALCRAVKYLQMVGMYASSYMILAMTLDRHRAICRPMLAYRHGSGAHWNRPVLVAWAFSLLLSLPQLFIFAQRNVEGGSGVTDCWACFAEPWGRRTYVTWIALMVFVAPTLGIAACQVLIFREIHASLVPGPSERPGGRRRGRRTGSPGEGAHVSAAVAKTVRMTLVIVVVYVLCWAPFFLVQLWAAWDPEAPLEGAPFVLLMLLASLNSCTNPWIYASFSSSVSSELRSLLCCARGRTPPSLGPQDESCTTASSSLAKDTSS
18 µM

What do you have for NC1CCN(c2nc3c(cc2F)c(=O)c(C(=O)O)cn3-c2ccc(F)cc2F)C1 (configuration not stated) [TOSUFLOXACIN] ?
> 30 µM

What do you have for CC(N)C12CC3CC(CC(C3)C1)C2 (configuration not stated) [RIMANTADINE] ?
> 10 µM

What do you have for CC(=O)[C@@]1(O)CC[C@H]2[C@@H]3C=C(Cl)C4=CC(=O)[C@@H]5C[C@@H]5[C@]4(C)[C@H]3CC[C@@]21C [CYPROTERONE] ?
> 10 µM

What do you have for CC(C)[C@H](N)C(=O)OCC(CO)OCn1cnc2c(=O)nc(N)[nH]c21 (some centres not stated) [VALGANCICLOVIR] ?
> 30 µM

What do you have for O=C1CCc2cc(OCCCCc3nnnn3C3CCCCC3)ccc2N1 [CILOSTAZOL] ?
> 30 µM

What do you have for CC(=O)OCC(=O)[C@@]1(O)[C@H](C)C[C@H]2[C@@H]3CCC4=CC(=O)C=C[C@]4(C)[C@@]3(F)[C@@H](O)C[C@@]21C [DEXAMETHASONE ACETATE] ?
> 30 µM

What do you have for COc1cc(N)c(Cl)cc1C(=O)NC1CCN(Cc2ccccc2)CC1 [CLEBOPRIDE] ?
> 30 µM

What do you have for Clc1ccc(C(Cn2ccnc2)OCc2ccsc2Cl)c(Cl)c1 (configuration not stated) [TIOCONAZOLE] ?
> 30 µM

What do you have for Cc1cccc(N2CC(CO)OC2=O)c1 (configuration not stated) [TOLOXATONE] ?
> 30 µM

What do you have for CCCN(CCC)C(=O)Cc1c(-c2ccc(Cl)cc2)nc2ccc(Cl)cn12 [ALPIDEM] ?
> 30 µM

What do you have for CO[C@H]1/C=C/O[C@@]2(C)Oc3c(C)c(O)c4c(O)c(c(/C=N/N5CCN(C)CC5)c(O)c4c3C2=O)NC(=O)/C(C)=C\C=C\[C@H](C)[C@H](O)[C@@H](C)[C@@H](O)[C@@H](C)[C@H](OC(C)=O)[C@@H]1C [RIFAMPIN] ?
30 µM

What do you have for Cc1onc(-c2ccccc2)c1-c1ccc(S(N)(=O)=O)cc1 [VALDECOXIB] ?
> 30 µM

What do you have for CC1=C(C)C(=O)C(C(CCCCCC(=O)O)c2ccccc2)=C(C)C1=O (configuration not stated) [SERATRODAST] ?
> 30 µM

What do you have for CCC1(c2ccccc2)CCC(=O)NC1=O (configuration not stated) [GLUTETHIMIDE] ?
> 10 µM

What do you have for CC1OC2(CS1)CN1CCC2CC1 (configuration not stated) [CEVIMELINE] ?
> 10 µM

What do you have for CC12CC3CC(C)(C1)CC(N)(C3)C2 [MEMANTINE] ?
> 30 µM
